Tested on: 653999-131-R-J2-PDC complex spheroids, growth inhibition
Assay: Anticancer human tumor 653999-131-R-J2-PDC patient-derived lung adenocarcinoma cell line growth inhibition [RAS]; active = viability on the fitted dose curve at most 10% of control; inactive = the rest
Details: second compound 0.3 µM; first compound 10 µM
Just give me one of these, please: True for active, False for inactive

# Molecule, Qualitative label
measured = [
    ("CC(C)NCC(C(=O)N1CCN(c2ncnc3c2C(C)CC3O)CC1)c1ccc(Cl)cc1 (centres undefined) + CCn1c(-c2cccnc2C(C)OC)c2c3cc(ccc31)N1CCOC(CC(NC(=O)C(C(C)C)N(C)C(=O)C3(F)CCN(C(=O)C#CC(C)(C)N(C)C)CC3)C(=O)N3CCCC(N3)C(=O)OCC(C)(C)C2)C1", "False"),
]

Assay outcome for CCC(CC)c1cc(NC2CCC(N)C2)n2nccc2n1 (centres undefined) + CCn1c(-c2cc(N3CCN(C)CC3)cnc2C(C)OC)c2c3cc(ccc31)-c1csc(n1)CC(NC(=O)C1CC1C)C(=O)N1CCCC(N1)C(=O)OCC(C)(C)C2 : what was it? False

Assay outcome for CC(=O)OC12COC1CC(O)C1(C)C(=O)C(O)C3=C(C)C(OC(=O)C(O)C(NC(=O)OC(C)(C)C)c4ccccc4)CC(O)(C(OC(=O)c4ccccc4)C21)C3(C)C (centres undefined) + CCn1c(-c2cccnc2C(C)OC)c2c3cc(ccc31)N1CCOC(CC(NC(=O)C(C(C)C)N(C)C(=O)C3(F)CCN(C(=O)C#CC(C)(C)N(C)C)CC3)C(=O)N3CCCC(N3)C(=O)OCC(C)(C)C2)C1 : what was it? False

Assay outcome for CC(C)NCC(C(=O)N1CCN(c2ncnc3c2C(C)CC3O)CC1)c1ccc(Cl)cc1 (centres undefined) + CCn1c(-c2cc(N3CCN(C)CC3)cnc2C(C)OC)c2c3cc(ccc31)-c1csc(n1)CC(NC(=O)C1CC1C)C(=O)N1CCCC(N1)C(=O)OCC(C)(C)C2 : what was it? True

---

System: 653999-131-R-J2-PDC complex spheroids, growth inhibition
Assay: Anticancer human tumor 653999-131-R-J2-PDC cell line growth inhibition [RAS];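 note: spheroids exposed to the agents for seven days before the readout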
Conditions: second compound 0.003 µM; first compound 0.01 µM; stronger effect = lower value
Hi there, I'd appreciate the recorded viability, T/C for every entry that follows.
Answers are plain numbers, in %.

Example cases with answers are listed next.
# Compound, Unit spec, viability, T/C
records = [
    ("C=CC(=O)N1CCN(c2nc(OCC3CCCN3C)nc3c(F)c(-c4nc(N)cc(C)c4C(F)(F)F)c(Cl)cc23)C(C)C1 (centres undefined) + CCn1c(-c2cccnc2C(C)OC)c2c3cc(ccc31)N1CCOC(CC(NC(=O)C(C(C)C)N(C)C(=O)C3(F)CCN(C(=O)C#CC(C)(C)N(C)C)CC3)C(=O)N3CCCC(N3)C(=O)OCC(C)(C)C2)C1", "%", 101),
    ("C=CC(=O)Nc1cc(Nc2nccc(-c3cn(C)c4ccccc34)n2)c(OC)cc1N(C)CCN(C)C + CCn1c(-c2cc(N3CCN(C)CC3)cnc2C(C)OC)c2c3cc(ccc31)-c1csc(n1)CC(NC(=O)C1CC1C)C(=O)N1CCCC(N1)C(=O)OCC(C)(C)C2", "%", 63.7),
]

Batch request: viability, T/C per item, same order as input.
1. C=CC(=O)Nc1cc(Nc2nccc(-c3cn(C)c4ccccc34)n2)c(OC)cc1N(C)CCN(C)C + CCn1c(-c2cccnc2C(C)OC)c2c3cc(ccc31)N1CCOC(CC(NC(=O)C(C(C)C)N(C)C(=O)C3(F)CCN(C(=O)C#CC(C)(C)N(C)C)CC3)C(=O)N3CCCC(N3)C(=O)OCC(C)(C)C2)C1
2. Nc1ccn(C2OC(CO)C(O)C2(F)F)c(=O)n1 (centres undefined) + CCn1c(-c2cccnc2C(C)OC)c2c3cc(ccc31)N1CCOC(CC(NC(=O)C(C(C)C)N(C)C(=O)C3(F)CCN(C(=O)C#CC(C)(C)N(C)C)CC3)C(=O)N3CCCC(N3)C(=O)OCC(C)(C)C2)C1

95.8
74.8

---

Test system: 653999-131-R-J2-PDC complex spheroids, growth inhibition
Experiment: Anticancer human tumor 653999-131-R-J2-PDC cell line growth inhibition [RAS];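 note: spheroids exposed to the agents for seven days before the readout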
Settings: second compound 0.00316 µM; first compound 1 µM; stronger effect = lower value
Hi there, I'd appreciate the recorded viability, T/C for every entry that follows.
Answers are plain numbers, in %.

Example cases with answers are listed next.
# Compound, Unit spec, viability, T/C
data = [
    ("CCN1CCN(Cc2ccc(Nc3ncc(F)c(-c4cc(F)c5nc(C)n(C(C)C)c5c4)n3)nc2)CC1 + C=CC(=O)N1CCN(c2nc(OCC3CCCN3C)nc3c(F)c(-c4nc(N)cc(C)c4C(F)(F)F)c(Cl)cc23)C(C)C1", "%", 75.4),
    ("C=CC(=O)Nc1cc(Nc2nccc(-c3cn(C)c4ccccc34)n2)c(OC)cc1N(C)CCN(C)C + C=CC(=O)N1CCN(c2nc(OCC3CCCN3C)nc3c(F)c(-c4nc(N)cc(C)c4C(F)(F)F)c(Cl)cc23)C(C)C1", "%", 46.3),
    ("CC(C)NCC(C(=O)N1CCN(c2ncnc3c2C(C)CC3O)CC1)c1ccc(Cl)cc1 (configuration not stated) + C=CC(=O)N1CCN(c2nc(OCC3CCCN3C)nc3c(F)c(-c4nc(N)cc(C)c4C(F)(F)F)c(Cl)cc23)C(C)C1", "%", 52),
    ("NC1c2ccccc2OC12CCN(c1cnc3c(N4CCCc5ncccc54)n[nH]c3n1)CC2 (configuration not stated) + C=CC(=O)N1CCN(c2nc(OCC3CCCN3C)nc3c(F)c(-c4nc(N)cc(C)c4C(F)(F)F)c(Cl)cc23)C(C)C1", "%", 79.7),
    ("CC(=O)OC12COC1CC(O)C1(C)C(=O)C(O)C3=C(C)C(OC(=O)C(O)C(NC(=O)OC(C)(C)C)c4ccccc4)CC(O)(C(OC(=O)c4ccccc4)C21)C3(C)C (configuration not stated) + C=CC(=O)N1CCN(c2nc(OCC3CCCN3C)nc3c(F)c(-c4nc(N)cc(C)c4C(F)(F)F)c(Cl)cc23)C(C)C1", "%", 58.8),
    ("Nc1ccn(C2OC(CO)C(O)C2(F)F)c(=O)n1 (configuration not stated) + C=CC(=O)N1CCN(c2nc(OCC3CCCN3C)nc3c(F)c(-c4nc(N)cc(C)c4C(F)(F)F)c(Cl)cc23)C(C)C1", "%", 32),
    ("O=C(c1ccc(F)c(F)c1Nc1ccc(I)cc1F)N1CC(O)([C@@H]2CCCCN2)C1 + C=CC(=O)N1CCN(c2nc(OCC3CCCN3C)nc3c(F)c(-c4nc(N)cc(C)c4C(F)(F)F)c(Cl)cc23)C(C)C1", "%", 10.2),
    ("CCC(CC)c1cc(NC2CCC(N)C2)n2nccc2n1 (configuration not stated) + C=CC(=O)N1CCN(c2nc(OCC3CCCN3C)nc3c(F)c(-c4nc(N)cc(C)c4C(F)(F)F)c(Cl)cc23)C(C)C1", "%", 101),
]

Batch request: viability, T/C per item, same order as input.
1. C[C@@H](NC(=O)c1ncnc(N)c1Cl)c1ncc(C(=O)Nc2cc(C(F)(F)F)c(Cl)cn2)s1 + C=CC(=O)N1CCN(c2nc(OCC3CCCN3C)nc3c(F)c(-c4nc(N)cc(C)c4C(F)(F)F)c(Cl)cc23)C(C)C1
2. CC1(O)CCCC1n1c(=O)c(C(F)F)cc2cnc(NC3CCN(S(C)(=O)=O)CC3)nc21 (configuration not stated) + C=CC(=O)N1CCN(c2nc(OCC3CCCN3C)nc3c(F)c(-c4nc(N)cc(C)c4C(F)(F)F)c(Cl)cc23)C(C)C1
3. CC(Nc1ccc2c(c1)OCCn1cc(N3C(=O)OCC3C(F)F)nc1-2)C(N)=O (configuration not stated) + C=CC(=O)N1CCN(c2nc(OCC3CCCN3C)nc3c(F)c(-c4nc(N)cc(C)c4C(F)(F)F)c(Cl)cc23)C(C)C1
4. Cc1nc(N2CCC3(CC2)COC(C)C3N)c(CO)nc1Sc1ccnc(N)c1Cl (configuration not stated) + C=CC(=O)N1CCN(c2nc(OCC3CCCN3C)nc3c(F)c(-c4nc(N)cc(C)c4C(F)(F)F)c(Cl)cc23)C(C)C1

1. 81
2. 63.5
3. 51.5
4. 74.6

---

Hi there, I'd appreciate the recorded pIC50 for every entry that follows.
Test system: 653999-131-R-J2-PDC complex spheroids, growth inhibition
Experiment: Anticancer human tumor 653999-131-R-J2-PDC cell line growth inhibition [RAS];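 note: spheroids exposed to the agents for seven days before the readout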
Settings: curve of first compound; second compound 0.03 µM
pIC50: −log10 of the molar value.

Example cases with answers are listed next.
# Compound, Experimental value
rows = [
    ("Cc1nc(N2CCC3(CC2)COC(C)C3N)c(CO)nc1Sc1ccnc(N)c1Cl (centres undefined) + CCn1c(-c2cccnc2C(C)OC)c2c3cc(ccc31)N1CCOC(CC(NC(=O)C(C(C)C)N(C)C(=O)C3(F)CCN(C(=O)C#CC(C)(C)N(C)C)CC3)C(=O)N3CCCC(N3)C(=O)OCC(C)(C)C2)C1", "< 5.00"),
    ("CC1(O)CCCC1n1c(=O)c(C(F)F)cc2cnc(NC3CCN(S(C)(=O)=O)CC3)nc21 (centres undefined) + CCn1c(-c2cccnc2C(C)OC)c2c3cc(ccc31)N1CCOC(CC(NC(=O)C(C(C)C)N(C)C(=O)C3(F)CCN(C(=O)C#CC(C)(C)N(C)C)CC3)C(=O)N3CCCC(N3)C(=O)OCC(C)(C)C2)C1", "< 5.00"),
    ("CC1(C)CCC(Nc2ncc(C(F)(F)F)c(-c3c[nH]c4c(P(C)(C)=O)c(C#N)ccc34)n2)CN1 (centres undefined) + CCn1c(-c2cc(N3CCN(C)CC3)cnc2C(C)OC)c2c3cc(ccc31)-c1csc(n1)CC(NC(=O)C1CC1C)C(=O)N1CCCC(N1)C(=O)OCC(C)(C)C2", "> 9.02"),
]

Let us examine a further case.
Tell me pIC50 reported for CCN1CCN(Cc2ccc(Nc3ncc(F)c(-c4cc(F)c5nc(C)n(C(C)C)c5c4)n3)nc2)CC1 + CCn1c(-c2cccnc2C(C)OC)c2c3cc(ccc31)N1CCOC(CC(NC(=O)C(C(C)C)N(C)C(=O)C3(F)CCN(C(=O)C#CC(C)(C)N(C)C)CC3)C(=O)N3CCCC(N3)C(=O)OCC(C)(C)C2)C1 < 6.00
